- Assay Name: self-splicing fitness, log relative to wild type (ln ratio); higher = more splicing; Tetrahymena group I intron in knt gene, E. coli kanamycin selection, DiMSum; sequences stand for … in CUCUCU…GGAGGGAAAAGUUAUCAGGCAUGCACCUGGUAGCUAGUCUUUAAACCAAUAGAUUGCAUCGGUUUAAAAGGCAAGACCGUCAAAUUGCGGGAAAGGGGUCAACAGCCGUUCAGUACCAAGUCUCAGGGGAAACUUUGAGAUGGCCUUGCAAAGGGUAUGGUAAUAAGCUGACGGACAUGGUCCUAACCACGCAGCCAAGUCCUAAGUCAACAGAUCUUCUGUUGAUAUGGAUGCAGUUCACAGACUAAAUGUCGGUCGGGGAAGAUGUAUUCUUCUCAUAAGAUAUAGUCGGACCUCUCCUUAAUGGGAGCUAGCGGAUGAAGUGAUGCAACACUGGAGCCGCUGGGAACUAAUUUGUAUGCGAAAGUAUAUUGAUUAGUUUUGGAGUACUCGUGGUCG;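 also: selection with 25 µg/mL kanamycin versus none on LB agar overnight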
- Experimental Conditions: 30 °C
Kindly state self-splicing fitness (ln) for each of the entries shown.

In: Report self-splicing fitness (ln) for AGUUAGCAAUAUUACGCACG
Out: -1.42

In: Report self-splicing fitness (ln) for UAUUAGCAAUAUUACGCUCU
Out: -1.02

In: Report self-splicing fitness (ln) for AUUGAGCAAUAUUACGCCGG
Out: -2.87

In: Report self-splicing fitness (ln) for CUCCAGCAAUAUUACGUCGU
Out: -3.07

In: Report self-splicing fitness (ln) for GGAAAGCAAUAUUACGUCCG
Out: -0.651

In: Report self-splicing fitness (ln) for CGCUAGCAAUAUUACGCAAU
Out: -2.44

In: Report self-splicing fitness (ln) for ACGCAGCAAUAUUACGCGGU
Out: -4.57

In: Report self-splicing fitness (ln) for UUGAAGCAAUAUUACGUCUC
Out: -3.24

In: Report self-splicing fitness (ln) for GUCAAGCAAUAUUACGCGCG
Out: -2

In: Report self-splicing fitness (ln) for UGGGAGCAAUAUUACGGCUA
Out: -0.66

In: Report self-splicing fitness (ln) for CCCGAGCAAUAUUACGUAUA
Out: -2.79

In: Report self-splicing fitness (ln) for UUGAAGCAAUAUUACGUGAG
Out: -0.592

In: Report self-splicing fitness (ln) for UGAAAGCAAUAUUACGCGGA
Out: -1.66

In: Report self-splicing fitness (ln) for UUCAAGCAAUAUUACGGGCU
Out: -3.7

In: Report self-splicing fitness (ln) for AAAUAGCAAUAUUACGCGCC
Out: -0.57

In: Report self-splicing fitness (ln) for CUAAAGCAAUAUUACGACAA
Out: -2.42

In: Report self-splicing fitness (ln) for CGGCAGCAAUAUUACGCACU
Out: -1.45

In: Report self-splicing fitness (ln) for GAAAAGCAAUAUUACGACUG
Out: -0.58

In: Report self-splicing fitness (ln) for GGUAAGCAAUAUUACGUGGU
Out: -1.33

In: Report self-splicing fitness (ln) for CAGCAGCAAUAUUACGACAU
Out: -3.5

In: Report self-splicing fitness (ln) for CAAGAGCAAUAUUACGUGCU
Out: -4.39

In: Report self-splicing fitness (ln) for AACGAGCAAUAUUACGGGCG
Out: -3.07

In: Report self-splicing fitness (ln) for GUGGAGCAAUAUUACGUGGA
Out: -2.92

In: Report self-splicing fitness (ln) for GCAGAGCAAUAUUACGACAG
Out: -3.01

In: Report self-splicing fitness (ln) for CCACAGCAAUAUUACGUCUC
Out: -3.01

In: Report self-splicing fitness (ln) for CGAGAGCAAUAUUACGCGUG
Out: -1.48

In: Report self-splicing fitness (ln) for CGUGAGCAAUAUUACGUCGA
Out: -1.75

In: Report self-splicing fitness (ln) for CGAAAGCAAUAUUACGUUUU
Out: -4.51

In: Report self-splicing fitness (ln) for CGCGAGCAAUAUUACGUCUU
Out: -2.32

In: Report self-splicing fitness (ln) for GGGGAGCAAUAUUACGCGUG
Out: -1.75

In: Report self-splicing fitness (ln) for CUAAAGCAAUAUUACGUUAG
Out: -2.33

In: Report self-splicing fitness (ln) for CGACAGCAAUAUUACGGACC
Out: -2.09

---

Kindly state self-splicing fitness (ln) for each of the entries shown.
- Assay Name: self-splicing fitness, log relative to wild type (ln ratio); higher = more splicing; Tetrahymena group I intron in knt gene, E. coli kanamycin selection, DiMSum; sequences stand for … in CUCUCU…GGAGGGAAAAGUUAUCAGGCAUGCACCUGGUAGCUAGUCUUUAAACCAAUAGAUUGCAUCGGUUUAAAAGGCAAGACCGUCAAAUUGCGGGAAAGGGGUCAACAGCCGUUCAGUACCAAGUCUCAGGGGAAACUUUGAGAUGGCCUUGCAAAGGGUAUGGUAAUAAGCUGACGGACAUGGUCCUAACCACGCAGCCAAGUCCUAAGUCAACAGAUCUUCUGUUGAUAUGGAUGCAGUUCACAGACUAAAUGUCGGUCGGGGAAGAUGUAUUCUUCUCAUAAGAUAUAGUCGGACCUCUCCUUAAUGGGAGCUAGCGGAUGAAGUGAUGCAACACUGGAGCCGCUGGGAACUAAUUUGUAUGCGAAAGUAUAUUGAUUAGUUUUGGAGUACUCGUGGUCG
- Experimental Conditions: 37 °C
Please give the numeric answer without any surrounding text.

In: Report self-splicing fitness (ln) for UCCGAGCAAUAUUACGACAU
Out: -2.98

In: Report self-splicing fitness (ln) for GGUAAGCAAUAUUACGCUGA
Out: -0.411

In: Report self-splicing fitness (ln) for UUAGAGCAAUAUUACGUCUU
Out: -0.85

In: Report self-splicing fitness (ln) for GGUAAGCAAUAUUACGUGGU
Out: -2.48

In: Report self-splicing fitness (ln) for CUGCAGCAAUAUUACGAGAA
Out: -2.64

In: Report self-splicing fitness (ln) for ACGAAGCAAUAUUACGUUCC
Out: -1.29

In: Report self-splicing fitness (ln) for UGCUAGCAAUAUUACGUGUC
Out: -2.72

In: Report self-splicing fitness (ln) for UGUUAGCAAUAUUACGCCCA
Out: -0.34

In: Report self-splicing fitness (ln) for ACAAAGCAAUAUUACGACGU
Out: 0.266

In: Report self-splicing fitness (ln) for CAAAAGCAAUAUUACGGGCG
Out: 0.608

In: Report self-splicing fitness (ln) for AGGAAGCAAUAUUACGCCGU
Out: -0.629

In: Report self-splicing fitness (ln) for UCCCAGCAAUAUUACGUUGC
Out: -2.06

In: Report self-splicing fitness (ln) for AUGCAGCAAUAUUACGAUCG
Out: -1.16

In: Report self-splicing fitness (ln) for AUAUAGCAAUAUUACGAUCC
Out: -0.578

In: Report self-splicing fitness (ln) for ACAAAGCAAUAUUACGAUGA
Out: -0.201

In: Report self-splicing fitness (ln) for GGACAGCAAUAUUACGGAAG
Out: -1.36

In: Report self-splicing fitness (ln) for CUCUAGCAAUAUUACGAUAA
Out: -2

In: Report self-splicing fitness (ln) for AACGAGCAAUAUUACGGGUG
Out: -2.34

In: Report self-splicing fitness (ln) for CGUGAGCAAUAUUACGCGAU
Out: -1.35

In: Report self-splicing fitness (ln) for CUCAAGCAAUAUUACGGUAC
Out: -3.06

In: Report self-splicing fitness (ln) for AAAUAGCAAUAUUACGACAA
Out: -0.284

In: Report self-splicing fitness (ln) for GCUUAGCAAUAUUACGAGAA
Out: -0.264

In: Report self-splicing fitness (ln) for UGUCAGCAAUAUUACGUUCA
Out: -0.052

In: Report self-splicing fitness (ln) for ACGCAGCAAUAUUACGUGGC
Out: -2.26

In: Report self-splicing fitness (ln) for UAUUAGCAAUAUUACGCCGG
Out: -0.907

In: Report self-splicing fitness (ln) for CUUAAGCAAUAUUACGCGGG
Out: -2.92

In: Report self-splicing fitness (ln) for CAAAAGCAAUAUUACGUGAA
Out: -1.63

In: Report self-splicing fitness (ln) for CUAGAGCAAUAUUACGGUCG
Out: -0.264

In: Report self-splicing fitness (ln) for ACACAGCAAUAUUACGACCC
Out: -0.0588

In: Report self-splicing fitness (ln) for AGGUAGCAAUAUUACGAUAA
Out: -0.626

In: Report self-splicing fitness (ln) for CCUCAGCAAUAUUACGUACA
Out: -2.78

In: Report self-splicing fitness (ln) for ACGGAGCAAUAUUACGCGAC
Out: -2.55

In: Report self-splicing fitness (ln) for CCGGAGCAAUAUUACGGAUG
Out: -1.92

In: Report self-splicing fitness (ln) for UUCGAGCAAUAUUACGCGGG
Out: -2.07

In: Report self-splicing fitness (ln) for UAUAAGCAAUAUUACGAUGG
Out: -1.48

In: Report self-splicing fitness (ln) for CGGGAGCAAUAUUACGCUGU
Out: -2.43

In: Report self-splicing fitness (ln) for GCAUAGCAAUAUUACGAUUC
Out: -0.436

In: Report self-splicing fitness (ln) for AGCGAGCAAUAUUACGAUUC
Out: -2.02

In: Report self-splicing fitness (ln) for UUUCAGCAAUAUUACGCAUC
Out: -0.623

In: Report self-splicing fitness (ln) for GCUGAGCAAUAUUACGAAGA
Out: -0.81

In: Report self-splicing fitness (ln) for CACGAGCAAUAUUACGUUUG
Out: -2.17

In: Report self-splicing fitness (ln) for UGGCAGCAAUAUUACGGUGC
Out: -2.79

In: Report self-splicing fitness (ln) for CAGAAGCAAUAUUACGUGCC
Out: -2.74

In: Report self-splicing fitness (ln) for AUUCAGCAAUAUUACGACAG
Out: -0.849

In: Report self-splicing fitness (ln) for GACCAGCAAUAUUACGUACU
Out: 0.123

In: Report self-splicing fitness (ln) for UAAAAGCAAUAUUACGAGAG
Out: -1.6

In: Report self-splicing fitness (ln) for AGCAAGCAAUAUUACGACAA
Out: -0.436

In: Report self-splicing fitness (ln) for GCUUAGCAAUAUUACGCUAC
Out: -3.24

In: Report self-splicing fitness (ln) for UAAAAGCAAUAUUACGCGUG
Out: -0.0179

In: Report self-splicing fitness (ln) for UAAAAGCAAUAUUACGGCCU
Out: -0.4

In: Report self-splicing fitness (ln) for GAUCAGCAAUAUUACGAACA
Out: 0.0485
